Each recorded value in this set is attributed to ChEMBL document CHEMBL1139947.

- Tested target: Estrogen receptor beta (Homo sapiens, UniProt Q92731)
- Sequence (Q92731 whole entry): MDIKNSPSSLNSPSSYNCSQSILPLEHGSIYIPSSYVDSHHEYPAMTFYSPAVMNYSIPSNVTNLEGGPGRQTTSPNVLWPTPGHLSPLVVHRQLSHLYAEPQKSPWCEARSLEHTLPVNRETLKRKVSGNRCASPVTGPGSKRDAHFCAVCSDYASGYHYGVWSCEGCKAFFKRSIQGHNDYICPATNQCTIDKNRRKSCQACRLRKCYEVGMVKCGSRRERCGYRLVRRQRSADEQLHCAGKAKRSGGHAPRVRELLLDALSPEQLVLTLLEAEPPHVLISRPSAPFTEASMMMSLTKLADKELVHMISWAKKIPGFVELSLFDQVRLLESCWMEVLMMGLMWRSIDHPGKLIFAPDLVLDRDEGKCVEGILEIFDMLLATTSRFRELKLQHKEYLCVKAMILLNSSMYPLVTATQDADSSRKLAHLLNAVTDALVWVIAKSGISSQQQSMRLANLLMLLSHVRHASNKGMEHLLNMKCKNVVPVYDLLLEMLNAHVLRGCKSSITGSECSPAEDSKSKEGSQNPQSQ
Assay readout: IC50

Look over these answered cases.
{"columns": ["Structure string", "Tested target", "Assay readout", "Result"],
 "data": [
  ["C[C@]12CC[C@H]3[C@@H](CC=C4[C@@H]5C(=O)CC[C@@]43C[C@H]5O)[C@@H]1CC[C@@H]2O", "Estrogen receptor beta (Homo sapiens, UniProt Q92731)", "IC50", "> 10 µM"],
  ["C[C@]12CC[C@H]3[C@@H](CC=C4C[C@@H]5CC[C@@]43CCO5)[C@@H]1CC[C@@H]2O", "Estrogen receptor beta (Homo sapiens, UniProt Q92731)", "IC50", "> 10 µM"],
  ["C[C@]12CC[C@H]3[C@@H](CC=C4[C@@H]5C(=O)CC[C@@]43C[C@@H]5O)[C@@H]1CC[C@@H]2O", "Estrogen receptor beta (Homo sapiens, UniProt Q92731)", "IC50", "> 10 µM"]
]}

Here's the next entry for you.
IC50 value, target or system Estrogen receptor beta (Homo sapiens, UniProt Q92731), for C[C@]12CC[C@H]3[C@@H](CC4C5=CC(=O)CC[C@@]53C[C@H]4O)[C@@H]1CC[C@@H]2O : > 10 µM
